# ASSAYED_SYSTEM: DPP IV (Homo sapiens)
# Sequence (P27487 whole entry, species assumed): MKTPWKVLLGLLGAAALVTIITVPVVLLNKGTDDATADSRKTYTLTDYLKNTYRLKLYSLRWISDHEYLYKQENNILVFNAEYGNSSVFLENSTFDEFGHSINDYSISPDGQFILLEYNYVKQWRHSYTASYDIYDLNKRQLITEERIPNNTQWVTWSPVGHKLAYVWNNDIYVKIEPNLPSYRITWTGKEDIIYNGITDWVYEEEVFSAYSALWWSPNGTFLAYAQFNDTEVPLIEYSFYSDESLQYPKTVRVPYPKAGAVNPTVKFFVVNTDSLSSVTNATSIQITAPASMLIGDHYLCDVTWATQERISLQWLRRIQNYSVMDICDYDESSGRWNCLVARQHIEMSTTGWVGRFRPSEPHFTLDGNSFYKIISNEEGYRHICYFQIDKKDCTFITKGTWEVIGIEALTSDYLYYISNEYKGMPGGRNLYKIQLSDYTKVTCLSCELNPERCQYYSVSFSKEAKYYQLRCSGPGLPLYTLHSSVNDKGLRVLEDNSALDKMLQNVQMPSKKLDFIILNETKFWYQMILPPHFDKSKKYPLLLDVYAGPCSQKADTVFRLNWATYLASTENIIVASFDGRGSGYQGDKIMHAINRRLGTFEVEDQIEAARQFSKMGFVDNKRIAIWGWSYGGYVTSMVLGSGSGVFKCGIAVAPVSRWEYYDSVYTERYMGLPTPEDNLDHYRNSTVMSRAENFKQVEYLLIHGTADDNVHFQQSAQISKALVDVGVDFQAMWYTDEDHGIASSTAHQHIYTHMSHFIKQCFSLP
# EXPERIMENT_SUMMARY: Stability against DPP IV enzyme
# Assay type: in vitro ADME
# CONDITION_SET: 2 μM peptidomimetic, 37° C., 24 h
# Experimental: Reactions were terminated by the addition of TFA/H2O (15 mL, 10% (v/v)). […] The column was equilibrated with TFA/H20, at a flow rate of 1 mL/min.
Non-standard residues stand in square brackets, D forms with d. Residues, ends and D or L forms follow the SMILES beside them. ξ: configuration not given here. *: point of attachment. Leu(5,5,5,5',5',5'-F6) = N[C@@H](CC(C(F)(F)F)C(F)(F)F)C(=O)O; X4 = CCc1cc(OC)ccc1-c1ccc(CC(CNC(CCCc2ccccc2F)C(N)=O)N*)cc1; ξαMePhe(2-F) = CC(N)(Cc1ccccc1F)C(=O)O; aThr = C[C@H](O)[C@H](N)C(=O)O; Aib = CC(C)(N)C(=O)O
EXPERIMENTAL_ENDPOINT: % degradation of peptidomimetics in 24 h when incubated with DPP-IV enzyme

[[record]]
molecule = "CCc1cc(OC)ccc1-c1ccc(CC(CNC(CCCc2ccccc2F)C(N)=O)NC(=O)[C@H](CC(=O)O)NC(=O)[C@H](CO)NC(=O)[C@@H](NC(=O)C(C)(Cc2ccccc2F)NC(=O)[C@@H](NC(=O)CNC(=O)[C@H](CC(C(F)(F)F)C(F)(F)F)NC(=O)C(C)(C)NC(=O)[C@@H](N)Cc2c[nH]cn2)[C@H](C)O)[C@H](C)O)cc1 (stereo partly drawn) [compound 214] (H-H[Aib][Leu(5,5,5,5',5',5'-F6)]G[aThr][ξαMePhe(2-F)][aThr]SD-X4)"
readout_value = "76%"

[[record]]
molecule = "CCc1cc(OC)ccc1-c1ccc(CC(NC(=O)[C@H](CC(=O)O)NC(=O)[C@H](CO)NC(=O)[C@@H](NC(=O)[C@H](Cc2ccccc2)NC(=O)[C@@H](NC(=O)CNC(=O)C(CCC#N)NC(=O)C(C)(C)NC(=O)[C@@H](N)Cc2c[nH]cn2)[C@@H](C)O)[C@@H](C)O)C(=O)NC(CCCc2ccc(OC)cc2Cl)C(N)=O)cc1 (single isomer, unassigned)"
readout_value = "00%"

[[record]]
molecule = "CCc1cc(OC)ccc1-c1ccc(CC(NC(=O)[C@H](CC(=O)O)NC(=O)[C@H](CO)NC(=O)[C@@H](NC(=O)[C@H](Cc2ccccc2)NC(=O)[C@@H](NC(=O)CNC(=O)[C@H](CCC(N)=O)NC(=O)C2(C)CCCN2C(=O)[C@@H](N)Cc2c[nH]cn2)[C@@H](C)O)[C@@H](C)O)C(=O)NC(CCCc2ccc(Cl)cc2C)C(N)=O)cc1 (single isomer, unassigned)"
readout_value = "76%"


Taken from patent US8883963B2.
